- tgt: Trx-6×His-BCL6 (human BCL6 BTB domain covering amino-acid sequence 5-129) (Homo sapiens (Human))
- procedure text: HTRF in vitro assay (BCL6 / BCOR-AF633 peptide)
- Assay type: binding
- test parameters: further generated data; 1 nM Trx-6×His-BCL6, 300 nM BCOR-AF633 peptide, 0.5 nM anti-6×His-Terbium cryptate

| compound | HTRF pIC50 |
| --- | --- |
| Cn1c(=O)n(CCC(C)(C)O)c2cc(Nc3nc(N4CCC(CN5CCOCC5)CC4)ncc3Cl)ccc21 [Example 42c] | 6.56 |
| Cn1c(=O)n(CCC(C)(C)O)c2cc(Nc3nc(N4CCCCC4)ncc3Cl)ccc21 [Example 20d] | 5.92 |
| Cn1c(=O)n(CCC(C)(C)O)c2cc(Nc3nc(Cl)nc(Cl)c3Cl)ccc21 [Example 22i] | 5.54 |
| Cn1c(=O)n(CCC2(C)OCCO2)c2cc(Nc3ccnc(Cl)c3C#N)ccc21 [Example 19c] | 5.45 |
| CCN1CCC[C@H]1Cn1c(=O)n(C)c2ccc(Nc3ccnc(Cl)c3C#N)cc21 [Example 25c] | 5.34 |
| Cn1c(=O)n(CCC(C)(C)O)c2cc(Nc3nc(N4CCCC(CO)C4)ncc3Cl)ccc21 (stereo not shown) [Example 42g] | 6.92 |
| Cn1c(=O)n(CCC(C)(C)O)c2cc(Nc3nc(N4CCOCC4)ncc3Cl)ccc21 [Example 20t] | 6.51 |
| COCC(C)(O)CCn1c(=O)n(C)c2ccc(Nc3nc(N4CCC(C(=O)N(C)C)CC4)ncc3Cl)cc21 (stereo not shown) [Example 15i] | 6.75 |
| CNC(=O)c1cc(Nc2ccc3c(c2)n(CC[C@@H](C)O)c(=O)n3C)c(C#N)c(Cl)n1 | 5.79 |
| COC(=O)c1cc(Nc2ccc3c(c2)n(CCC(C)C(=O)OC)c(=O)n3C)c(C#N)c(Cl)n1 (stereo not shown) | 6.18 |
| Cn1c(=O)n(C[C@@H]2CCCN2CCF)c2cc(Nc3ccnc(Cl)c3C#N)ccc21 [Example 25f] | 5.73 |
| CCC1(Cn2c(=O)n(C)c3ccc(Nc4nc(-n5ccc(C(F)(F)F)n5)ncc4Cl)cc32)CNC(=O)O1 (stereo not shown) [Example 20o] | 6.22 |
| Cn1c(=O)n(CCC(C)(C)O)c2cc(Nc3nc(N4C[C@@H]5CC[C@@H](C5)C4)ncc3Cl)ccc21 [Example 35n] | 6.05 |
| Cn1c(=O)n(CCC(C)(C)O)c2cc(Nc3cc(Cl)nc4ccnn34)ccc21 [Example 22h] | 5.47 |
| CCOC(=O)c1cc(Nc2ccc3c(c2)n(CCC(C)C(=O)OC)c(=O)n3C)c(C#N)c(Cl)n1 (stereo not shown) | 6.10 |
| Cn1c(=O)n(CCC(C)(C)O)c2cc(Nc3nc(N4C[C@H]5CCCC[C@H]5C4)ncc3Cl)ccc21 [Example 35o] | 6.04 |

----------
- tgt: Trx-6×His-BCL6 (human BCL6 BTB domain covering amino-acid sequence 5-129) (Homo sapiens (Human), UniProt P41182)
- procedure text: HTRF in vitro assay (BCL6 / BCOR-AF633 peptide)
- Type: binding
- test parameters: initially generated data; 10 nM Trx-6×His-BCL6, 300 nM BCOR-AF633 peptide, 1 nM anti-6×His-Terbium cryptate
- Procedure: The % inhibition at each concentration was calculated by normalising FRET ratio to the appropriate high (DMSO with all reagents) and low (DMSO without BCL6) controls.

| compound | HTRF pIC50 |
| --- | --- |
| CCOC(=O)c1cc(Nc2ccc3c(c2)n(CC[C@@H](C)O)c(=O)n3C)n2nccc2n1 [Example 1o] | 5.58 |
| COC(=O)CCCn1c(=O)n(C)c2ccc(Nc3ccnc(Cl)c3C#N)cc21 [Example 10d] | 5.55 |
| CCNC(=O)c1cc(Nc2ccc3c(c2)n(CCC(C)(C)O)c(=O)n3C)c(Cl)cn1 [Example 14] | 6.05 |
| CCOC(=O)c1cc(Nc2ccc3c(c2)n(CCC(C)C(=O)OC)c(=O)n3C)c(C#N)c(Cl)n1 (stereo not shown) [Example 2b] | 6.19 |

----------
- tgt: Trx-6×His-BCL6 (human BCL6 BTB domain covering amino-acid sequence 5-129) (Homo sapiens (Human), UniProt P41182)
- procedure text: HTRF in vitro assay (BCL6 / BCOR-AF633 peptide)
- Type: binding
- test parameters: initially generated data; 10 nM Trx-6×His-BCL6, 300 nM BCOR-AF633 peptide, 1 nM anti-6×His-Terbium cryptate

| compound | HTRF pIC50 |
| --- | --- |
| Cn1c(=O)n(CCC(C)(C)O)c2cc(Nc3ccnc(Br)c3C#N)ccc21 [Example 1k] | 5.63 |
| C#CCCNC(=O)c1cc(Nc2ccc3c(c2)n(CCC(C)C(=O)OC)c(=O)n3C)c(C#N)c(Cl)n1 (stereo not shown) [Example 7b] | 5.84 |
| Cc1cc(Nc2ccc3c(c2)n(CCC(C)(C)O)c(=O)n3C)c(C#N)c(Cl)n1 [Example 1b] | 6.09 |
| CCOC(=O)c1cc(Nc2ccc3c(c2)n(CCC(C)C(=O)OC)c(=O)n3C)n2nccc2n1 (stereo not shown) [Example 8] | 5.83 |

----------
Below: a set of entries, each annotated with reported Degradation assay in SU-DHL4 cells (pDC50).
- tgt: endogenous BCL6 protein (Homo sapiens (Human), UniProt P41182)
- procedure text: Immunofluorescence-based BCL6 degradation assay
- Type: cell-based
- test parameters: 2 hours with compound
property label: Degradation assay in SU-DHL4 cells (pDC50)

| molecule | test value |
| --- | --- |
| Cn1c(=O)n(CCC(C)(C)O)c2cc(Nc3nc(N4CCC(F)(F)CC4)ncc3Cl)ccc21 [Example 35d] | 6.59 |
| Cn1c(=O)n(CCC(C)(C)O)c2cc(Nc3nc(N4CCCC(C(F)(F)F)C4)ncc3Cl)ccc21 (stereo not shown) [Example 20h] | 6.30 |
| CC1CCCN(c2ncc(Cl)c(Nc3ccc4c(c3)n(CCC(C)(C)O)c(=O)n4C)n2)C1.O=CO (stereo not shown) [Example 20g] | 6.29 |
| C[C@@H]1CN(c2ncc(Cl)c(Nc3ccc4c(c3)n(CCC(C)(C)O)c(=O)n4CCC(C)(C)O)n2)C[C@H](C)C1(F)F [Example 35j] | 6.43 |
| CC1CN(c2ncc(Cl)c(Nc3ccc4c(c3)n(CCC(C)(C)O)c(=O)n4C)n2)CCC1(F)F (stereo not shown) [Example 35c] | 6.75 |
| Cn1c(=O)n(CCC(C)(C)O)c2cc(Nc3cc(N4CCC(F)(F)CC4)ncc3Cl)ccc21 [Example 36a] | 6.35 |
| COCC1CN(c2ncc(Cl)c(Nc3ccc4c(c3)n(CCC(C)(C)O)c(=O)n4C)n2)CCC1(F)F (stereo not shown) [Example 35b] | 6.35 |

----------
- tgt: Trx-6×His-BCL6 (human BCL6 BTB domain covering amino-acid sequence 5-129) (Homo sapiens (Human))
- procedure text: HTRF in vitro assay (BCL6 / BCOR-AF633 peptide)
- Assay type: binding
- test parameters: further generated data; 1 nM Trx-6×His-BCL6, 300 nM BCOR-AF633 peptide, 0.5 nM anti-6×His-Terbium cryptate

| compound | HTRF pIC50 |
| --- | --- |
| Cn1c(=O)n(CCC(C)(C)O)c2cc(Nc3ccncc3Br)ccc21 [Example 29c] | 5.38 |
| COC(=O)C(C)CCn1c(=O)n(C)c2ccc(Nc3ccnc(Cl)c3C#N)cc21 (centres unmarked) [Example 1j] | 5.78 |
| Cn1c(=O)n(CC2CCCCN2CC(F)(F)F)c2cc(Nc3ccnc(Cl)c3C#N)ccc21 (centres unmarked) [Example 25e] | 5.37 |
| CCN(C)c1ncc(Cl)c(Nc2ccc3c(c2)n(CCC(C)(C)O)c(=O)n3C)n1 [Example 20i] | 6.17 |
| Cn1c(=O)n(CCC(C)(C)O)c2cc(Nc3ccnc(F)c3Cl)ccc21 [Example 29a] | 6.21 |
| Cc1cc(Nc2ccc3c(c2)n(CC[C@@H](C)O)c(=O)n3C)c(C#N)c(Cl)n1 [Example 1l] | 5.53 |
| C[C@@H]1CN(c2ncc(Cl)c(Nc3ccc4c(c3)n(CCC(C)(C)O)c(=O)n4C)n2)C[C@H](C)O1 [Example 20j] | 6.80 |
| COC(=O)[C@@H](N)CCn1c(=O)n(C)c2ccc(Nc3ccnc(Cl)c3C#N)cc21 [Example 6] | 6.00 |

----------
- tgt: Trx-6×His-BCL6 (human BCL6 BTB domain covering amino-acid sequence 5-129) (Homo sapiens (Human), UniProt P41182)
- procedure text: HTRF in vitro assay (BCL6 / BCOR-AF633 peptide)
- Format: binding
- test parameters: initially generated data; 10 nM Trx-6×His-BCL6, 300 nM BCOR-AF633 peptide, 1 nM anti-6×His-Terbium cryptate
property label: HTRF pIC50

| compound | property label | test value |
| --- | --- | --- |
| CNC(=O)c1cc(Nc2ccc3c(c2)n(CCC(C)C(=O)OC)c(=O)n3C)c(C#N)c(Cl)n1 (stereo not drawn) [Example 7a] | HTRF pIC50 | 5.97 |
| Cn1c(=O)n(C)c2cc(Nc3cc(C(=O)O)nc(Cl)c3C#N)ccc21 [Example 1c] | HTRF pIC50 | 6.05 |
| COC(=O)[C@@H](N)CCn1c(=O)n(C)c2ccc(Nc3ccnc(Cl)c3C#N)cc21 [Example 6] | HTRF pIC50 | 5.97 |
